Reference source: ChEMBL document CHEMBL1128746

Form field: inhibition (one value per entry).
- Measurement Target: Cannabinoid receptor 1 (Rattus norvegicus) (UniProt P20272)
- Sequence (P20272 whole entry): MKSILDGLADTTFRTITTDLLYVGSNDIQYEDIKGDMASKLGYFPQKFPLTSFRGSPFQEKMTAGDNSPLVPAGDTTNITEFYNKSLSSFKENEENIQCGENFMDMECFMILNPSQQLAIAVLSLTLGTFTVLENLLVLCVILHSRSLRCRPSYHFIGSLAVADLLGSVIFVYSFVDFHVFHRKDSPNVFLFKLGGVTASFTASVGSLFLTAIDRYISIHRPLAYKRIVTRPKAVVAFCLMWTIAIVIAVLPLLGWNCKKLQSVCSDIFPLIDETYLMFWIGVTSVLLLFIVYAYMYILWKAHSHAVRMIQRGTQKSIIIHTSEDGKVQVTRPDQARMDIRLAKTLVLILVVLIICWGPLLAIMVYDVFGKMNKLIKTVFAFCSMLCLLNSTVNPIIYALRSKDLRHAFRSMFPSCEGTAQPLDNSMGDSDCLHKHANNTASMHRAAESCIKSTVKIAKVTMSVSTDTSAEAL
- Procedure Text: […] [3H]WIN-55212 binding to Cannabinoid receptor 1 in rat cerebellum membranes.
- Assay type: cell membranes
- Protocol Conditions: Membrane, concentration not given here
Report the figure in % without appending any unit label.

Example cases with answers are listed next.
| Molecule | Measurement Target | Quantity Measured | Recorded Value |
| --- | --- | --- | --- |
| COc1ccc(C(=O)c2c(C)n(CCN3CCCC3)c3ccccc23)cc1 | Cannabinoid receptor 1 (Rattus norvegicus) (UniProt P20272) | inhibition | 7 |
| Cc1c(C(=O)c2ccc(C(C)(C)C)cc2)c2ccccc2n1CCN1CCOCC1 | Cannabinoid receptor 1 (Rattus norvegicus) (UniProt P20272) | inhibition | 56 |
| COc1ccc(C(=O)c2c(C)n(CC[N+]3([O-])CCOCC3)c3ccccc23)cc1 | Cannabinoid receptor 1 (Rattus norvegicus) (UniProt P20272) | inhibition | -9 |
| Cc1c(C(=O)c2cccc(F)c2)c2ccccc2n1CCN1CCOCC1 | Cannabinoid receptor 1 (Rattus norvegicus) (UniProt P20272) | inhibition | 38 |
| COc1ccc(C(=O)c2c(C#N)n(CCN3CCOCC3)c3ccccc23)cc1 | Cannabinoid receptor 1 (Rattus norvegicus) (UniProt P20272) | inhibition | 3 |

Moving on to another molecule below.
Using known records, supply inhibition for Cc1c(C(=O)c2cccc3cc4ccccc4cc23)c2ccccc2n1CCN1CCOCC1
74

###

- Organism: Mus musculus
- Procedure Text: Concentration required to inhibit electrically induced contractions in isolated mouse vas deferens preparation in vitro
- Type: functional
- Protocol Conditions: Mus musculus
Classify by IC50. Ranges: interval 1: < 90 nM; interval 2: ≥ 90 nM and < 300 nM; interval 3: ≥ 300 nM

Examples from the recorded data:
| Molecule | Category Label |
| --- | --- |
| COc1ccc(C(=O)c2c(C)n(CCN3CCOCC3)c3c(OC)cccc23)cc1 | interval 2 |
| COc1ccc(C(=O)c2c(C)n(CCN3CCOC(C)C3)c3ccccc23)cc1 (stereo not given) | interval 3 |
| COc1ccc(C(=O)c2cn(CCN3CCOCC3)c3ccccc23)cc1 | interval 2 |

Now let's try a different one.
Form: Item = COc1ccc(C(=O)c2c(C)n(CCN3CCOCC3)c3ccccc23)cc1 [PRAVADOLINE] ; Class = ?
interval 3

###

- Species on record: Mus musculus
- Procedure Text: Concentration required to inhibit electrically induced contractions in isolated mouse vas deferens preparation in vitro
- Assay type: functional
- Protocol Conditions: Mus musculus
Quantity Measured: log10(IC50) (log10 of the value in µM)
A value of 2 here means IC50 of 100 in µM, since values are log10.

| Structure String | Recorded Value |
| --- | --- |
| COc1ccc(C(=O)c2cn(CCN3CCOCC3)c3cc(Br)ccc23)cc1 | -1.77 |

Give log10(IC50) for Cc1c(C(=O)c2ccc(Br)c3ccccc23)c2ccccc2n1CCN1CCOCC1
-1.47

Output log10(IC50) of COc1ccc(C(=O)c2c(C)n(CCN3CCOCC3)c3c(F)cccc23)cc1
-1.14

###

- Organism: Mus musculus
- Procedure Text: Concentration required to inhibit electrically induced contractions in isolated mouse vas deferens preparation in vitro
- Format: functional
- Protocol Conditions: Mus musculus
Quantity Measured: pIC50
The meaning of pIC50 here: minus log10 of the concentration in molar units.

Previously resolved entries follow.
| Molecule | Recorded Value |
| --- | --- |
| O=C(c1ccc2ncccc2c1)c1cn(CCN2CCOCC2)c2ccccc12 | 6.85 |
| O=C(c1cccc2ccccc12)c1cn(CCN2CCOCC2)c2ccc(Br)cc12 | 7.72 |
| O=C(c1cn(CCN2CCOCC2)c2ccccc12)c1cccc2ccoc12 | 8.34 |
| O=C(c1ccc2ccccc2c1)c1cn(CCN2CCOCC2)c2ccccc12 | 7.51 |
| Cc1c(C(=O)c2cccc3ccccc23)c2ccccc2n1CCCN1CCOCC1 | 6.95 |
| COc1ccc(C(=O)c2c(Cl)n(CCN3CCOCC3)c3ccccc23)cc1 | 6.75 |
| Cc1c(C(=O)c2cc3ccccc3c3ccccc23)c2ccccc2n1CCN1CCOCC1 | 6.76 |
| Cc1ccc(C(=O)c2c(C)n(CCN3CCOCC3)c3ccccc23)c2ccccc12 | 8.02 |
| COc1ccccc1C(=O)c1c(C)n(CCN2CCOCC2)c2ccccc12 | 7.04 |
| Cc1c(C(=O)c2cccc3ccoc23)c2ccccc2n1CCN1CCOCC1 | 7.77 |

Annotate the molecule O=C(c1cccc2ccccc12)c1cn(CCCN2CCOCC2)c2ccccc12 with its measured pIC50.
8.01

###

- Species on record: Mus musculus
- Procedure Text: Concentration required to inhibit electrically induced contractions in isolated mouse vas deferens preparation in vitro
- Format: functional
- Protocol Conditions: Mus musculus
IC50 values for the compounds below.

| Compound | IC50 |
| --- | --- |
| COc1ccc(C(=O)c2c(C)n(CC(=O)O)c3ccccc23)cc1 | > 10000 nM |
| COc1ccc(C(=O)c2c(C)n(CCN3CCOCC3C)c3ccccc23)cc1 (stereo unspecified) | > 10000 nM |
| Cc1c(C(=O)c2cccc3ccccc23)c2ccccc2n1CCN1CCCCC1 | 66 nM |
| COc1ccc(C(=O)c2c(C)n(CCN3CCOCC3)c3ccccc23)c2ccccc12 | 23 nM |
| COc1ccc(C(=O)c2c(C)n(CCN)c3ccccc23)cc1 | > 10000 nM |

Give recorded IC50. O=C(c1ccc2occc2c1)c1cn(CCN2CCOCC2)c2ccccc12
28 nM

###

- Measurement Target: Cannabinoid receptor 1 (Rattus norvegicus) (UniProt P20272)
- Procedure Text: […] [3H]WIN-55212 binding to Cannabinoid receptor 1 in rat cerebellum membranes.
- Type: cell membranes
- Protocol Conditions: Membrane, concentration not given here
Each record here notes measured inhibition.
All answers are understood in %, so give the number only.

Example entries begin here.
| Molecule | Measurement Target | inhibition (%) |
| --- | --- | --- |
| COc1ccc(C(=O)c2c(C)n(CCN3CCOCC3)c3c(OC)cccc23)cc1 | Cannabinoid receptor 1 (Rattus norvegicus) (UniProt P20272) | 64 |
| Cc1c(C(=O)c2ccc(Cl)cc2)c2ccccc2n1CCN1CCOCC1 | Cannabinoid receptor 1 (Rattus norvegicus) (UniProt P20272) | 62 |
| Cc1c(C(=O)c2ccc3ccc4cccc5ccc2c3c45)c2ccccc2n1CCN1CCOCC1 | Cannabinoid receptor 1 (Rattus norvegicus) (UniProt P20272) | 89 |
| Cc1c(C(=O)c2cnc3ccccc3c2)c2ccccc2n1CCN1CCOCC1 | Cannabinoid receptor 1 (Rattus norvegicus) (UniProt P20272) | 28 |

Output inhibition of COc1ccc(C(=O)c2c(C)n(C(C)CN3CCOCC3)c3ccccc23)cc1 (configuration not stated)
34

Tell me its inhibition given COc1ccc(C(=O)c2c(C)n(CCN3CCOCC3)c3ccc(C)cc23)cc1 as the entry.
7

Please list inhibition recorded for the molecule COc1cccc(C(=O)c2c(C)n(CCN3CCOCC3)c3ccccc23)c1
76

Provide measured inhibition value, entry: Cc1c(C(=O)c2cccc3ccccc23)c2ccccc2n1CC(=O)O
21

Please report the measured inhibition for Cc1c(C(=O)c2ccccc2C#N)c2ccccc2n1CCN1CCOCC1
0

Determine its reported inhibition: Cc1c(C=O)c2ccccc2n1CCN1CCOCC1
37

Supply reported inhibition belonging to this molecule: COc1ccc(C(=O)c2cn(C(C)CN3CCOCC3)c3ccccc23)cc1 (configuration not stated)
35

Answer with the recorded inhibition of COc1ccc(C(=O)c2cn(CCN3CCOCC3)c3cc(Br)ccc23)cc1 only.
21

Fill in inhibition for record COc1ccc(C(=O)c2c(C)n(CCN(C)C)c3ccccc23)cc1
11

Report measured inhibition; entry is COc1ccc(C(=O)c2c(C)n(CCN3CCS(=O)(=O)CC3)c3ccccc23)cc1
-4

###

- Species on record: Mus musculus
- Procedure Text: Concentration required to inhibit electrically induced contractions in isolated mouse vas deferens preparation in vitro
- Assay type: functional
- Protocol Conditions: Mus musculus
Categories are defined by ranges of IC50, namely range A: < 100 nM; range B: ≥ 100 nM and < 600 nM; range C: ≥ 600 nM

Example entries and their recorded answers appear below.
| Compound | Category Label |
| --- | --- |
| O=C(c1cn(CCN2CCOCC2)c2ccccc12)C1CCCc2ccccc21 (stereo unspecified) | range A |
| Cc1c(C(=O)c2ccc(Cl)cc2)c2ccccc2n1CCN1CCOCC1 | range B |
| Cc1c(C(=O)c2cccc3ccccc23)c2ccccc2n1CC(=O)O | range C |
| COc1ccc(C(=O)c2c(C)n(C(C)CN3CCOCC3)c3ccccc23)cc1 (stereo unspecified) | range C |
| C[N+]1(CCn2cc(C(=O)c3cccc4ccccc34)c3ccccc32)CCOCC1 | range B |

Which category fits this record: O=C(c1cccc2ccccc12)c1cn(CCN2CCOCC2)c2ccc(O)cc12
range A

Which bin should I file Cc1ccccc1C(=O)c1c(C)n(CCN2CCOCC2)c2ccccc12 under?
range C

Please classify: Cc1c(C(=O)c2cccc3ccccc23)c2ccccc2n1CCN1CCOCC1
range A

Category lookup for the compound COc1ccc(C(=O)c2c(C)n(CCN3CCCC3)c3ccccc23)cc1
range B

Could you tell me which band Cc1[nH]c2ccccc2c1C(=O)c1cccc2ccccc12 belongs to?
range C
